Values compiled from ChEMBL document CHEMBL3784929.

Assay: Total serum concentration in healthy human (6 volunteers) at 1 g, po administered as single dose measured after 6 hrs by gas liquid chromatography
Type: ADME, organism-based
Conditions: read-out: Drug uptake
measured-endpoint: concentration at 6 h (µg/mL)
# output: bare number, implied unit µg/mL

# input compound: CCCC(CCC)C(=O)[O-].[Na+] [VALPROATE SODIUM] ; wanted: its concentration at 6 h
85.9

====

Assay: Total serum concentration in healthy human (6 volunteers) at 1 g, po administered as single dose measured after 5 hrs by gas liquid chromatography
Assay type: ADME, organism-based
Conditions: read-out: Drug uptake
measured-endpoint: concentration at 5 h (µg/mL)
The reply should contain only the number, in µg/mL.

Could you share which concentration at 5 h value was measured for CCCC(CCC)C(=O)[O-].[Na+] [VALPROATE SODIUM] ?
88.6

====

Test: Fraction unbound in healthy human (6 volunteers) serum at 1 g, po administered as single dose measured after 5 hrs
Format: ADME, organism-based
measured-endpoint: fraction unbound at 5 h

Tell me the measured fraction unbound at 5 h of CCCC(CCC)C(=O)[O-].[Na+] [VALPROATE SODIUM] , please.
0.04

====

Assay: Fraction unbound in healthy human (6 volunteers) serum at 1 g, po administered as single dose measured after 4 hrs
Format: ADME, organism-based
measured-endpoint: fraction unbound at 4 h
The answer should be a number; do not append a unit.

Give its fraction unbound at 4 h value. Item: CCCC(CCC)C(=O)[O-].[Na+] [VALPROATE SODIUM]
0.049

====

Assay: Total serum concentration in healthy human (6 volunteers) at 1 g, po administered as single dose measured after 8 hrs by gas liquid chromatography
Type: ADME, organism-based
Details: read-out: Drug uptake
measured-endpoint: concentration at 8 h (µg/mL)
State the answer as a number, implicitly in µg/mL.

Quick one: concentration at 8 h of CCCC(CCC)C(=O)[O-].[Na+] [VALPROATE SODIUM] ?
66.9

====

Assay: Total serum concentration in healthy human (6 volunteers) at 1 g, po administered as single dose measured after 12 hrs by gas liquid chromatography
Format: ADME, organism-based
Details: read-out: Drug uptake
measured-endpoint: concentration at 12 h

# concentration at 12 h lookup, item CCCC(CCC)C(=O)[O-].[Na+] [VALPROATE SODIUM]
54.1 µg/mL

====

Test: Total serum concentration in healthy human (6 volunteers) at 1 g, po administered as single dose measured after 0.33 hrs by gas liquid chromatography
Type: ADME, organism-based
Settings: read-out: Drug uptake
measured-endpoint: concentration at 0.33 h
Could you give the number and then its unit, please?

Sample CCCC(CCC)C(=O)[O-].[Na+] [VALPROATE SODIUM] — what was its concentration at 0.33 h?
52.3 µg/mL

====

Experiment: Fraction unbound in healthy human (6 volunteers) serum at 1 g, po administered as single dose measured after 10 hrs
Assay type: ADME, organism-based
measured-endpoint: fraction unbound at 10 h
// return just the number, without any unit appended

Which value of fraction unbound at 10 h has been reported for CCCC(CCC)C(=O)[O-].[Na+] [VALPROATE SODIUM] in the records?
0.046

====

Test: Fraction unbound in healthy human (6 volunteers) serum at 1 g, po administered as single dose measured after 6 hrs
Assay type: ADME, organism-based
measured-endpoint: fraction unbound at 6 h
When you answer, write just the number.

Recorded fraction unbound at 6 h of CCCC(CCC)C(=O)[O-].[Na+] [VALPROATE SODIUM] , please.
0.044
